SYSTEM UNDER TEST: α-amylase
ASSAY: DNS colorimetric alpha-amylase inhibition assay with starch
Assay type: biochemical
Quick reference: IC50 of the listed items.
Just the number in µg/mL, nothing appended.

Guide cases for IC50, answers given:
COMPOUND | SYSTEM UNDER TEST | OUTCOME MEASURE | MEASUREMENT UNIT | OBSERVED MEASUREMENT
COc1cc(O[C@@H]2O[C@H](CO[C@@H]3OC[C@@H](O)[C@H](O)[C@H]3O)[C@@H](O)[C@H](O)[C@H]2O)c2c(=O)cc(-c3ccc(O)cc3)oc2c1 | α-amylase | IC50 | µg/mL | 1320
COc1cc2cc(Oc3ccc4ccc(=O)oc4c3)c(=O)oc2cc1O [compound 2, 6'-Methoxy-7'-hydroxy-3'-O-7-bicoumarin] | α-amylase | IC50 | µg/mL | 710
COc1cc([C@H]2OC[C@H]3[C@@H]2CO[C@@H]3c2ccc(O)c(OC)c2)ccc1O | α-amylase | IC50 | µg/mL | 1810

Then this compound:
# IC50 lookup, item O=c1cc(-c2ccc(O)c(O)c2)oc2cc(O)cc(O)c12 [luteolin, reference compound] 630
